# assay.target: T1, pembrolizumab
# T1 construct: also called PM1; PM1 AB
# T1 sequence (VH, as listed by the source, chain 1 of 2): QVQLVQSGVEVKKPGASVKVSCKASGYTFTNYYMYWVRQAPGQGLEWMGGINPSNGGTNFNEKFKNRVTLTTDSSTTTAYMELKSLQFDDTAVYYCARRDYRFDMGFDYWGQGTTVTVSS
# T1 sequence (VL, as listed by the source, chain 2 of 2): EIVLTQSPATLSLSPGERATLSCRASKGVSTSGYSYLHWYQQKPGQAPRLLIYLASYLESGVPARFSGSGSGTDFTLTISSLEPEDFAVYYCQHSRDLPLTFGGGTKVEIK
# assay.method.text: bacterial display clone with labeled PM1

>  <binder>
FCPPWLDYLGNKCMT (bacterial display clone) [masking moiety PM04]

>  <binding result>
binds

$$$$
>  <binder>
VGQSCFSGLVCDRQL (bacterial display clone) [masking moiety PM10]

>  <binding result>
binds

$$$$
>  <binder>
HCIPDFTSAAGDCMR (bacterial display clone) [masking moiety PM12]

>  <binding result>
binds

$$$$
>  <binder>
ISHYCFSGKSCRD (bacterial display clone) [masking moiety PM11]

>  <binding result>
binds

$$$$

From: patent US20170044259A1
